studyTarget: Cytochrome P450 2C9 (Homo sapiens) (UniProt P11712)
Sequence (P11712 whole entry, looked up): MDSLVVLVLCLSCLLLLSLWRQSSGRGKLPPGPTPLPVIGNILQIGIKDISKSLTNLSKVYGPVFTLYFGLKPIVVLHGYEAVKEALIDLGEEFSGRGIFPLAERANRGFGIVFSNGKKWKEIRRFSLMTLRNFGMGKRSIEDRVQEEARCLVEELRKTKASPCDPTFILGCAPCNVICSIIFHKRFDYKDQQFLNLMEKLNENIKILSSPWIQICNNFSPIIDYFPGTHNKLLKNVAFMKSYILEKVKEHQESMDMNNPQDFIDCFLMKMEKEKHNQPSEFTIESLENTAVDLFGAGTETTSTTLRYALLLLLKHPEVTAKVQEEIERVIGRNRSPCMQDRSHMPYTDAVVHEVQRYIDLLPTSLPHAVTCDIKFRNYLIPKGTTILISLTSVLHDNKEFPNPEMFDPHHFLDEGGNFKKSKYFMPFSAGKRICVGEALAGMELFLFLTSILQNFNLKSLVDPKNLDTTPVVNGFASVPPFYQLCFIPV
measurementProtocol: blockers of cytochrome P450 2C9 activity – biochemical, luminescence, ADME assay, primary screen (AID 777)
settings: CYP2C9 Supersomes, luciferin-H conversion, at 5 µM, stronger effect = higher value
About 19,000 (20%) of roughly 96,000 compounds were called active. Not all results are given here.
resultType: inhibition (%)

# compound, val
records = [
    ("COC(=O)C(C)C1Sc2ccccc2NC1=O (centres undefined)", 2.8),
    ("N#CCCN1CCN(S(=O)(=O)c2ccc(S(=O)(=O)NC3CC3)cc2)CC1", 9.6),
    ("CNC(=S)N1N=C(c2ccccc2)CC1c1ccc(Br)cc1 (centres undefined)", 69.6),
    ("Cc1nnc(NC(=O)CSc2nccn2-c2cccc(C)c2C)s1", 39.9),
    ("Cc1nc2ccc(C(=O)O)cc2[nH]1", 14.9),
    ("COc1ccccc1NC(=O)CSc1nnc(Cc2cccn2C)n1-c1ccc(F)cc1", 62.7),
    ("COC(=O)COc1ccc2oc(=O)cc(C)c2c1", -9.3),
    ("COc1cc(OC)cc(C(=O)Nc2ncc3c(n2)CC(C)(C)CC3=O)c1", -12.1),
    ("Cn1c(Cc2cccc3ccccc23)nnc1SCC(=O)N1CCN(c2cccc(Cl)c2)CC1", -15.6),
]
